Source: ChEMBL document CHEMBL5244269

Biological target: BDNF/NT-3 growth factors receptor (Homo sapiens, UniProt Q16620)
Sequence (Q16620 whole entry): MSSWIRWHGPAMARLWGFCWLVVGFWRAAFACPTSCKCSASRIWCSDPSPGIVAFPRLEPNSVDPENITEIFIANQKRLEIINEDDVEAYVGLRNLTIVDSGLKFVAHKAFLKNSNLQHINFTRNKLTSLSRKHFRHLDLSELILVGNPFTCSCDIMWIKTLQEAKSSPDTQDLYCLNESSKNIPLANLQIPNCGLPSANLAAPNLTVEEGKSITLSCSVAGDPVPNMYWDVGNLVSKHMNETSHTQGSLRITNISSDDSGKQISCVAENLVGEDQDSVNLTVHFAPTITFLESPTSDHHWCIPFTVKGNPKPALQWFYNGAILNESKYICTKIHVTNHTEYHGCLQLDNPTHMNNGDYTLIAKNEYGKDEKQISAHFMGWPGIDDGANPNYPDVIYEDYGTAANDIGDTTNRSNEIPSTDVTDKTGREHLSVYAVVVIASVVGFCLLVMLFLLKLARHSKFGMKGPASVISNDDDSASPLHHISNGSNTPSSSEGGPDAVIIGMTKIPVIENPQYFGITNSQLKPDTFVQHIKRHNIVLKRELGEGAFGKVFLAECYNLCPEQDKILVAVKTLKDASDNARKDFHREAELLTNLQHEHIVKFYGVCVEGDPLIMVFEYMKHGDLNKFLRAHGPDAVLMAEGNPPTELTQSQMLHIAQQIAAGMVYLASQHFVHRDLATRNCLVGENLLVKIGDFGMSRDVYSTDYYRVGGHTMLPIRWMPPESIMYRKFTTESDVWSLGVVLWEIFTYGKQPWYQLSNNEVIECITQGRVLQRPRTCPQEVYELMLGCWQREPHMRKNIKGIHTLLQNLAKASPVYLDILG
pIC50: −log10 of the molar value.
# pIC50 values compiled below
measured property: pIC50

> print(dat)
                               query.smiles  value.reported
1  Cc1ncc(-c2nc3c(NC(C)C)nc(Nc4cnn(C5CC6(C5)CN(C)C6)c4)nc3cc2F)cn1            6.03
2  Cc1ncc(-c2nc3c(OC4(C)CC4)nc(Nc4cnn(C5CCN(C)CC5)c4)nc3cc2F)cn1            6.12

---

Test: Metabolic stability in mouse hepatocytes assessed as intrinsic clearance measured per 10^6 cells
Assay type: ADME, cell-based, Hepatocyte
Settings: read-out: CLH
measured property: hepatocyte CLint (µL/min/1e6 cells)

> print(dat)
                               query.smiles  value.reported
1  Cc1ncc(-c2nc3c(OC4(C)CC4)nc(Nc4cnn(C5CCN(C)CC5)c4)nc3cc2F)cn1              11

---

Assay: Clearance in cynomolgus monkey at 1 mg/kg, iv
Format: ADME, organism-based, Macaca fascicularis
Settings: in vivo
measured property: clearance (mL/min/kg)

> print(dat)
                               query.smiles  measured.property  scale.unit  value.reported
1  Cc1ncc(-c2nc3c(OC4(C)CC4)nc(Nc4cnn(C5CCN(C)CC5)c4)nc3cc2F)cn1          clearance   mL/min/kg              68

---

Target: Interleukin-1 receptor-associated kinase 4 (Homo sapiens, UniProt Q9NWZ3)
Sequence (Q9NWZ3 whole entry): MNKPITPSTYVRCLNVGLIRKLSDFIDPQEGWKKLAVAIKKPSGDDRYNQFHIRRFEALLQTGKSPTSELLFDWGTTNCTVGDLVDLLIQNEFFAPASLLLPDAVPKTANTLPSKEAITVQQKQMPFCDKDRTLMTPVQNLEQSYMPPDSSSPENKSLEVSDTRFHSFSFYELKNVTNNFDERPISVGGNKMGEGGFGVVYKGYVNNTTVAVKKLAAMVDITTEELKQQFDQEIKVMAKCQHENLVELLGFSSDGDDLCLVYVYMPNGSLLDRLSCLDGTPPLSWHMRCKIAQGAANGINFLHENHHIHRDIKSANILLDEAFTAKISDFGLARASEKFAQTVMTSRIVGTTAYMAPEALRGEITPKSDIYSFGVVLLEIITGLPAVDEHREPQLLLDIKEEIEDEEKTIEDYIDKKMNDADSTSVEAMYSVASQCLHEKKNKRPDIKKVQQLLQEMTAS
Test: Inhibition of IRAK4 (unknown origin) in presence of ATP by enzymatic assay
pIC50: −log10 of the molar value.
Reported pIC50 values for a set of compounds
measured property: pIC50

> print(dat)
                                query.smiles  measured.property  value.reported
 1  CN1CCC(n2cc(Nc3nc(OC4(C)CC4)c4nc(C5CC5)ccc4n3)cn2)CC1              pIC50            8.70
 2  CC(=O)N1CCC(n2cc(Nc3nc(NC4CCOCC4)c4nc(CC#N)ccc4n3)cn2)CC1              pIC50            7.92
 3  Cc1ncc(-c2nc3c(OC4(C)CC4)nc(Nc4cnn(C5CC6(C5)CN(C)C6)c4)nc3cc2F)cn1              pIC50            8.52
 4  Cn1cc(Nc2nc(NC3COC3)c3nc(CC#N)ccc3n2)cn1              pIC50            6.35
 5  N#CCc1ccc2nc(Nc3cnn(C4CCOCC4)c3)nc(NC3CCOCC3)c2n1              pIC50            7.82
 6  Cc1ncc(-c2nc3c(OC4(C)CC4)nc(Nc4cnn([C@@H]5C[C@@H]6C[C@H]5CN6C)c4)nc3cc2F)cn1              pIC50            8.40
 7  CN1CCC(n2cc(Nc3nc(OC4(C)CC4)c4nc(-c5cccnc5)ccc4n3)cn2)CC1              pIC50            9.00
 8  Cc1ncc(-c2nc3c(OC4(C)CC4)nc(Nc4cnn(C5CCN(C)CC5)c4)nc3cc2F)cn1              pIC50            8.52
 9  Cn1cc(Nc2nc(N[C@@H]3CCOC3)c3nc(CC#N)ccc3n2)cn1              pIC50            6.68
10  CN1CCC(n2cc(Nc3nc(OC4(C)CC4)c4nc(C(=O)N(C)C)ccc4n3)cn2)CC1              pIC50            7.89
11  CN1CCC(n2cc(Nc3nc(OC4(C)CC4)c4nc(-c5cnn(C)c5)ccc4n3)cn2)CC1              pIC50            8.52
12   CC(C)Nc1nc(Nc2cnn(C)c2)nc2ccc(CC#N)nc12              pIC50            7.29
13  Cc1ncc(-c2ccc3nc(Nc4cnn(C5CCN(C)CC5)c4)nc(OC4(C)CC4)c3n2)cn1              pIC50            8.74
14  Cc1ncc(-c2nc3c(OC4(C)CC4)nc(Nc4cnn([C@@H]5C[C@H]6C[C@@H]5CN6C)c4)nc3cc2F)cn1              pIC50            7.49
15  Cc1ccc2nc(Nc3cnn(C4CCN(C)CC4)c3)nc(OC3(C)CC3)c2n1              pIC50            8.52
16   Cn1cc(Nc2nc(NC3CC3)c3nc(CC#N)ccc3n2)cn1              pIC50            7.66
17  Cn1cc(Nc2nc(N[C@H]3CCOC3)c3nc(CC#N)ccc3n2)cn1              pIC50            6.95
18  CN1CC2(CC(n3cc(Nc4nc(OC5(C)CC5)c5nc(C6CC6)c(F)cc5n4)cn3)C2)C1              pIC50            8.52
19  CN1CCC(n2cc(Nc3nc(OC4(C)CC4)c4nc(-c5ccn(C)n5)ccc4n3)cn2)CC1              pIC50            6.31

---

Assay: Metabolic stability in human hepatocytes assessed as half life
Format: ADME, cell-based, Hepatocyte
measured property: half-life (min)

> print(dat)
                               query.smiles  scale.unit  value.reported
1  Cc1ncc(-c2nc3c(OC4(C)CC4)nc(Nc4cnn(C5CCN(C)CC5)c4)nc3cc2F)cn1         min            1800

---

Experiment: Plasma protein binding in rat assessed as free fraction by equilibrium dialysis analysis
Type: ADME, cell-free
measured property: fraction unbound

> print(dat)
                               query.smiles  value.reported
1  Cc1ncc(-c2nc3c(OC4(C)CC4)nc(Nc4cnn(C5CCN(C)CC5)c4)nc3cc2F)cn1            0.21

---

Experiment: Metabolic stability in mouse liver microsomes assessed as intrinsic clearance
Type: ADME, Microsome
Conditions: read-out: CLH
measured property: microsomal CLint (µL/min/mg)

> print(dat)
                               query.smiles  measured.property  value.reported
1  Cc1ncc(-c2nc3c(OC4(C)CC4)nc(Nc4cnn(C5CCN(C)CC5)c4)nc3cc2F)cn1   microsomal CLint              13

---

Test: Apparent permeability across apical to basolateral side in human Caco-2 cells measured for 360 mins by liquid scintillation counting based analysis
Assay type: ADME, cell-based
Give true when the value for Papp A→B at 6 h is at least 80 nm/s. Give false when it is less.

> print(dat)
                               query.smiles  label
1  CC(=O)N1CCC(n2cc(Nc3nc(OC4CCOCC4)c4nc(C)ccc4n3)cn2)CC1   true
2  Cc1ncc(-c2nc3c(OC4(C)CC4)nc(Nc4cnn(C5CCN(C)CC5)c4)nc3cc2F)cn1   true
3  COC(=O)N1CCN([C@H]2CC[C@H](Nc3nc(Nc4cnn(C)c4)nc4ccc(CC#N)nc34)CC2)CC1   true
4  CN1CCC(n2cc(Nc3nc(OC4(C)CC4)c4nc(C(=O)N(C)C)ccc4n3)cn2)CC1  false
5  Cc1ccc2nc(Nc3cnn(C4CCN(C)CC4)c3)nc(OC3(C)CC3)c2n1   true
6  Cc1ncc(-c2nc3c(NC(C)C)nc(Nc4cnn(C5CC6(C5)CN(C)C6)c4)nc3cc2F)cn1  false
7  CC(=O)N1CCC(n2cc(Nc3nc(NC4CCOCC4)c4nc(CC#N)ccc4n3)cn2)CC1  false
